Biological target: Cdk5 (Homo sapiens, UniProt Q00535)
Sequence (Q00535 whole entry): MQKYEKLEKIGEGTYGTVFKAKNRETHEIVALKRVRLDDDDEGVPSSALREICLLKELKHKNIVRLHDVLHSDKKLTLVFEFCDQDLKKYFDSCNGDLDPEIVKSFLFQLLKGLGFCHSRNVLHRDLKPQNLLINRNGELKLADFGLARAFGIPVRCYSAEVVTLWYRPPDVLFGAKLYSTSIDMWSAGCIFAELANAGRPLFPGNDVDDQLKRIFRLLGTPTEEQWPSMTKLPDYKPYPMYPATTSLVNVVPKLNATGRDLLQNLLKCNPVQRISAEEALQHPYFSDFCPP
Assay: Binding study of peptide by SPR (Ni-NTA chip, immobilized recombinant Cdk5)
Settings: recombinant Cdk5 on Ni-NTA sensor chip, peptide 0.4, 0.6 and 1 µM, BIA evaluation 3.0, read-out: dissociation constant (KD)
Peptide text beside a SMILES is read from it.
READOUT_TYPE: Kd (nM)

COMPOUND: N[C@@H](Cc1ccc(O)cc1)C(=O)N[C@@H](CS)C(=O)N[C@@H](Cc1c[nH]c2ccccc12)C(=O)N[C@@H](CO)C(=O)O [YCWS] (H-YCWS-OH)
UNIT_ABBREVIATION: nM
ENDPOINT_VALUE: 3.94
